Reported IC50 by item:
Target sequence: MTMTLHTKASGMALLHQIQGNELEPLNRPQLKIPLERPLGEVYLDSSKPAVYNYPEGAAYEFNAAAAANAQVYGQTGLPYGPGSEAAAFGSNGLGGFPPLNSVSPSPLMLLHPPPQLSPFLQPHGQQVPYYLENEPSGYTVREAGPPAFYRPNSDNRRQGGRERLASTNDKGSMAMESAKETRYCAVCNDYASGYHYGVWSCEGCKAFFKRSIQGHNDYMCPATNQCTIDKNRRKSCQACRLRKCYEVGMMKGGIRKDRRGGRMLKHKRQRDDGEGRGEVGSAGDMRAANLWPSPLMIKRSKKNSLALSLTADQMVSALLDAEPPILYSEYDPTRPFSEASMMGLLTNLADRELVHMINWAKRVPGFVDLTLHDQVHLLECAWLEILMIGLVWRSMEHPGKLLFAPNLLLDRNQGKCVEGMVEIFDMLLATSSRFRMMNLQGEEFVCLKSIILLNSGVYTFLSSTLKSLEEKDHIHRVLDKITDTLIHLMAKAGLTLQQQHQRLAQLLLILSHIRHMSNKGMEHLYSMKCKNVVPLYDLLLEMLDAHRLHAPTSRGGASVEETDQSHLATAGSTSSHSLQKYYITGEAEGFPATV
The source made the active and inactive calls.

Here's what some known entries look like.
compound	reading
NC(Cc1ccc([N+](=O)[O-])cc1)=NOC(=O)c1ccc2ccccc2c1	> 50 µM (not active)
O=C(Nc1nc(-c2nc3ccccc3s2)cs1)C1COc2ccccc2O1 (stereo not given)	25.1 µM (active)
COc1cc(NC(=O)COc2ccc(-n3cnnn3)cc2)c(OC)cc1Cl	8.31 µM (active)
Cc1ccc(C(=O)N/N=C/c2ccc([N+](=O)[O-])s2)cc1	21.1 µM (active)

From here, focus on the item given below.
Write down IC50 measured for item COc1ccc(-n2c(SCC(=O)Nc3ccc4c(c3)OCO4)nnc2C(C)N2CCCCC2)cc1 (stereo not given)
> 50 µM (not active)
